- System: U2OS
- Assay Procedure: Multiplex assay against U2OS
- Type: toxicity, cell-based
- Experimental Setup: human, 48 h, 1 µM, compound concentration 1 uM
Endpoint: Population Normal (%)
Form entry: value (%) — number only.

Would you please look over these solved cases?
1) COc1cc(N2CCN(C)CC2)ccc1Nc1nccc(-c2cn(C)c3cnccc23)n1 :: 100
2) Cc1ccc(-c2c(C(=O)CF)n(CCCO)c3ncnc(N)c23)cc1 :: 100
3) O=C(O)C(F)(F)F.O=C1NC(=O)/C(=C/c2c[nH]c(=O)c(-c3ccc(N4CCNCC4)nc3)c2)S1 :: 100

Kindly review the next compound as well.
[Q] Can you look up the measured Population Normal (%) of Nc1nc(CC(=O)Nc2ccc(CCNC[C@H](O)c3ccccc3)cc2)cs1 [MIRABEGRON] for me?
[A] 97
